I'd be grateful if you could share measured pIC50 for these entries.
target: Glutamate NMDA receptor; Grin1/Grin2a (Rattus norvegicus, UniProt P35439+Q00959); test: Antagonistic activity against rat N-methyl-D-aspartate glutamate receptor 1/2A, expressed in Xenopus oocytes; assay type: functional, cell-based, Oocyte
Sequence (Q00959 whole entry, other chains not shown): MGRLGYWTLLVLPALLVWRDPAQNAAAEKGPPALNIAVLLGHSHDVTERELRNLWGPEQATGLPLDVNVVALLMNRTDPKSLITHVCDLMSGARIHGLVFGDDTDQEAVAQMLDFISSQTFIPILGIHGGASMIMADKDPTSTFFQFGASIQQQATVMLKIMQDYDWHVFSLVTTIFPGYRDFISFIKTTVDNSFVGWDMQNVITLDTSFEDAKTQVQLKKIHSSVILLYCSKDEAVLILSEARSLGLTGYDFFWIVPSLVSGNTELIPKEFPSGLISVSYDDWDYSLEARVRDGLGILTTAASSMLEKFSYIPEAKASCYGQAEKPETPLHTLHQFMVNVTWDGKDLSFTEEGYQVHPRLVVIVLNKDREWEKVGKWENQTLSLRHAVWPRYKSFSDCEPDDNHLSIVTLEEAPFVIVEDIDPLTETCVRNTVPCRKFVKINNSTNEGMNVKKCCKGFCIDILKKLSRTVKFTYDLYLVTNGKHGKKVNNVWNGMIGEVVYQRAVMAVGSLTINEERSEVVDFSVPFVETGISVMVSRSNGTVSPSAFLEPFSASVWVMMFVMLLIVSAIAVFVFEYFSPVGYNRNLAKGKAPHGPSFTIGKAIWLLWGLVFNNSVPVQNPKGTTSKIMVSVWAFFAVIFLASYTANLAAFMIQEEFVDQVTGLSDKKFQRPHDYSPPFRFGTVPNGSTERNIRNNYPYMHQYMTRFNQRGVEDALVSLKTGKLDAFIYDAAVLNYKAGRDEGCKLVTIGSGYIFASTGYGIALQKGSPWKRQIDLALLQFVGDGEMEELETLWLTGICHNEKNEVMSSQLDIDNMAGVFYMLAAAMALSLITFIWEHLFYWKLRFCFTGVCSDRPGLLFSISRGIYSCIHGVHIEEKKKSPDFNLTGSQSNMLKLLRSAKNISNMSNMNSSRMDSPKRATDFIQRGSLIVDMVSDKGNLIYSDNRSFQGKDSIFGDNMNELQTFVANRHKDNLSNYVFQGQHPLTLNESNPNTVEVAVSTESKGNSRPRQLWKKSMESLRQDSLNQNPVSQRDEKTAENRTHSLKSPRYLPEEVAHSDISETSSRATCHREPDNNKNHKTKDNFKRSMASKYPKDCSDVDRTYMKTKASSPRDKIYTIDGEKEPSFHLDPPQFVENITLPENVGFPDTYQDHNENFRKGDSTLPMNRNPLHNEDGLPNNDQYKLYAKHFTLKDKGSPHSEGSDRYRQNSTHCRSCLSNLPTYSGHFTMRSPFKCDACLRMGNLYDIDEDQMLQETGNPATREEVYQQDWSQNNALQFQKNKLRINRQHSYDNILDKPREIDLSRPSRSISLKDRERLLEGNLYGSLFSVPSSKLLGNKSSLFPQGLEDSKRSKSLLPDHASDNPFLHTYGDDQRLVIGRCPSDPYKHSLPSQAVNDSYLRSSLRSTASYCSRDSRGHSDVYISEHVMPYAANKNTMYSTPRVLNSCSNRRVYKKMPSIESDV
pIC50: −log10 of the molar value.

Answered examples (4):
Smiles data | Study target | pIC50
CNc1ccc(C#CCCN2CCC(Cc3ccccc3)CC2)cc1 | Glutamate NMDA receptor; Grin1/Grin2a (Rattus norvegicus, UniProt P35439+Q00959) | 4.08
CN(C)c1ccc(C#CCCN2CCC(Cc3ccccc3)CC2)cc1 | Glutamate NMDA receptor; Grin1/Grin2a (Rattus norvegicus, UniProt P35439+Q00959) | < 4.00
CS(=O)(=O)Nc1ccc(C#CCCN2CCC(Cc3ccccc3)CC2)cc1 | Glutamate NMDA receptor; Grin1/Grin2a (Rattus norvegicus, UniProt P35439+Q00959) | < 4.00
CC(=O)Nc1ccc(C#CCCCN2CCC(Cc3ccccc3)CC2)cc1 | Glutamate NMDA receptor; Grin1/Grin2a (Rattus norvegicus, UniProt P35439+Q00959) | < 4.00

For every listed record, write down its pIC50.
1. CS(=O)(=O)Nc1ccc(C#CCCCN2CCC(Cc3ccccc3)CC2)cc1
2. CC(=O)Nc1ccc(C#CCN2CCC(Cc3ccccc3)CC2)cc1

OUTPUT:
< 4.00
4.25

Origin of measurements: ChEMBL document CHEMBL1132273
